Target chain: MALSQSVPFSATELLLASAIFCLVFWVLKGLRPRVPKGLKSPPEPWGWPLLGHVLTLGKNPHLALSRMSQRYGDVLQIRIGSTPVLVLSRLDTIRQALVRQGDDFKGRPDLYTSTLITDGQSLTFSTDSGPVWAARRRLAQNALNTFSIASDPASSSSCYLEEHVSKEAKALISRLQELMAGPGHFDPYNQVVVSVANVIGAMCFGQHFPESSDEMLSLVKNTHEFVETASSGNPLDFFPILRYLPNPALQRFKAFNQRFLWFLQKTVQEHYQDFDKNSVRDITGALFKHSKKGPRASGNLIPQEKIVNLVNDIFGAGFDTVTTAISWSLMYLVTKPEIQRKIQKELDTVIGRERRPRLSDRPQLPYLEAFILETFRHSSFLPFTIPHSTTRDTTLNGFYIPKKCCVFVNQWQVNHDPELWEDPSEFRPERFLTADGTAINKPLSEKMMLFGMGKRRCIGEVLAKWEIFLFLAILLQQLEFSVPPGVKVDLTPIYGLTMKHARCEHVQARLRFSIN
This listing pairs molecules with measured IC50.

GET /value?item= N=C(Nc1ccc2c(c1)CCCN2C1CCNCC1)c1cccs1 &field=IC50 returns > 100 µM

GET /value?item= CN(C)CCN1C(=O)CCc2cc(NC(=N)c3cccs3)ccc21 &field=IC50 returns > 100 µM

---

This listing pairs compounds with measured IC50.
- Study system: UniProtKB P29475
- Sequence (P29475 whole entry): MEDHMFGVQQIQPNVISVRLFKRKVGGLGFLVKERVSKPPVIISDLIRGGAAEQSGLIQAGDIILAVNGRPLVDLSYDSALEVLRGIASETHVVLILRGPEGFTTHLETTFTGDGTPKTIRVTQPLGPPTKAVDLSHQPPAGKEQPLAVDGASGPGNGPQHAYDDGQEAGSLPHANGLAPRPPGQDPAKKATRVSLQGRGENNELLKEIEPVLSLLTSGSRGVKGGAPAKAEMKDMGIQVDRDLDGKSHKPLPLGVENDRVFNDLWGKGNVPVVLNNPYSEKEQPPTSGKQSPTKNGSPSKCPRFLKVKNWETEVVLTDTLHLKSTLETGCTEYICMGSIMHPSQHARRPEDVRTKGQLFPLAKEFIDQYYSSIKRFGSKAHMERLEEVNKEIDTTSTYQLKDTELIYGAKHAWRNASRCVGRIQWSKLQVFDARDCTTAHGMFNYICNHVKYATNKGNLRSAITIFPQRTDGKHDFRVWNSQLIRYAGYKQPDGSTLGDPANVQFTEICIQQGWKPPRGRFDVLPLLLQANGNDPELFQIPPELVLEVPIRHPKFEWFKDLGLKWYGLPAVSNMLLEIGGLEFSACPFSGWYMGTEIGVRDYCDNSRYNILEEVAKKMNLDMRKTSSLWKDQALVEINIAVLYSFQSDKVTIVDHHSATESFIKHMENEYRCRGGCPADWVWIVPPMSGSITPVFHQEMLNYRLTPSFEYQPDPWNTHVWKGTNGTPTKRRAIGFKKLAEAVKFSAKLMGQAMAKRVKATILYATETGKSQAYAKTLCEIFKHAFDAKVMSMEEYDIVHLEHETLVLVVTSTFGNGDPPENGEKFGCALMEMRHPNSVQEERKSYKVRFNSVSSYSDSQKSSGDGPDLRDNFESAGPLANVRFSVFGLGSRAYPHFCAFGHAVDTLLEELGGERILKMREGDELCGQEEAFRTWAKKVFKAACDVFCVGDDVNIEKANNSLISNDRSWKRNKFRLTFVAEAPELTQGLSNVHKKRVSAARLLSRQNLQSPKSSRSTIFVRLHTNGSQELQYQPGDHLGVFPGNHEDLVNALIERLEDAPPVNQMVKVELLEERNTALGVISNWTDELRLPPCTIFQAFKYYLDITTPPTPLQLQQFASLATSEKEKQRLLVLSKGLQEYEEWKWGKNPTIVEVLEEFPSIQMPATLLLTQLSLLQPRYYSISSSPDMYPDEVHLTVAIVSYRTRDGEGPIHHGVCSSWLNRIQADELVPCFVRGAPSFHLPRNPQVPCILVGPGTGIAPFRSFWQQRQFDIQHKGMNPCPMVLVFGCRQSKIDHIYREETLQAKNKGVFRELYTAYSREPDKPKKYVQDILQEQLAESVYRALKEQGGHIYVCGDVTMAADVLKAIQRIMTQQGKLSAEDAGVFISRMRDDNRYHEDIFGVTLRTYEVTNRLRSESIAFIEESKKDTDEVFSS
- Method: Inhibition of human recombinant nNOS expressed in baculovirus infected Sf9 cells assessed as conversion of [3H]L-arginine to [3H]L-citrulline preincubated for 15 mins measured after 45 mins by liquid scintillation counting
- Format: cell-based
A complete answer gives the number followed by the unit.

N=C(Nc1ccc2c(c1)CCC(=O)N2CCN1CCCC1)c1cccs1
160 nM

GET /value?item= CN1CCC(N2CCCc3cc(NC(=N)c4cccs4)ccc32)CC1 &field=IC50 returns 820 nM

GET /value?item= N=C(Nc1ccc2c(c1)CCCN2C1CCNCC1)c1cccs1 &field=IC50 returns 540 nM

---

Quick record of pIC50 values for Cytochrome P450 2D6 (Homo sapiens).
pIC50: −log10 of the molar value.

CN(C)CCN1C(=O)CCc2cc(NC(=N)c3cccs3)ccc21
4.91

GET /value?item= N=C(Nc1ccc2c(c1)CCCN2C1CCNCC1)c1cccs1 &field=pIC50 returns < 4.00

GET /value?item= CN(C)CCN1CCCc2cc(NC(=N)c3cccs3)ccc21 &field=pIC50 returns < 4.00

---

- Study system: Nitric oxide synthase, inducible (Homo sapiens, UniProt P35228)
- Sequence (P35228 whole entry): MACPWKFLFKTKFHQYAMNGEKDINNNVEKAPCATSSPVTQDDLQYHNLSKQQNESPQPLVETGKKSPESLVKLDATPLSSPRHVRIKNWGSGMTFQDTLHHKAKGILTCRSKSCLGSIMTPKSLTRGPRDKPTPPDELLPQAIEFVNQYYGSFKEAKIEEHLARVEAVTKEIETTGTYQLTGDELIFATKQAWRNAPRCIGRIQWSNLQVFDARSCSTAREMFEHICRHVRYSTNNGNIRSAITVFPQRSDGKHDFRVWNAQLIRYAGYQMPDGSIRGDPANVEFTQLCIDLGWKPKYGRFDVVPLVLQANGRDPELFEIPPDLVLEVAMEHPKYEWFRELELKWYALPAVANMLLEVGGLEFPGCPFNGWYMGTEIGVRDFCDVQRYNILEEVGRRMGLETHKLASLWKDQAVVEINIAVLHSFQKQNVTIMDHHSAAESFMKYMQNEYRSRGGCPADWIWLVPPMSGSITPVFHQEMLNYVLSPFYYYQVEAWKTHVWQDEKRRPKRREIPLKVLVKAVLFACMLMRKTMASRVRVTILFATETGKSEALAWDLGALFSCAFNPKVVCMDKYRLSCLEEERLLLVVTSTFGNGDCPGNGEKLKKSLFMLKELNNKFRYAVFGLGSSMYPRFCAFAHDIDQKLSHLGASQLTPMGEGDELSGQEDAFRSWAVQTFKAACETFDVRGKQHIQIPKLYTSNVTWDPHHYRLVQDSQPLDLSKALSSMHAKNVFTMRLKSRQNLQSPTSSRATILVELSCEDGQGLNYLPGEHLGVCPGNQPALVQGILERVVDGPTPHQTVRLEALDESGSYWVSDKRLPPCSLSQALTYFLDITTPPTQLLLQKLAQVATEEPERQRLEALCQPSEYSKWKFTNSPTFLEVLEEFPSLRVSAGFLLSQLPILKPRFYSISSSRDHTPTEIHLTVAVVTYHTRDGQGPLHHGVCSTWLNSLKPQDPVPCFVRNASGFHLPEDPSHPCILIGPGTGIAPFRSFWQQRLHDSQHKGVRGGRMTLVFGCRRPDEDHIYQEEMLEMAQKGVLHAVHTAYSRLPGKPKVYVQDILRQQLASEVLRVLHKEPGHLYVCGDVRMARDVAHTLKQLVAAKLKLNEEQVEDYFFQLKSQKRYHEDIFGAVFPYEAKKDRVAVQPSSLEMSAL
- Method: Inhibition of human recombinant iNOS expressed in baculovirus infected Sf9 cells assessed as conversion of [3H]L-arginine to [3H]L-citrulline preincubated for 15 mins measured after 45 mins by liquid scintillation counting
pIC50: −log10 of the molar value.
Test readout: pIC50

Here is how some molecules turned out for pIC50.
CCN(CC)CCN1C(=O)CCc2cc(NC(=N)c3cccs3)ccc21
4.92
CN(C)CCN1C(=O)CCc2cc(NC(=N)c3cccs3)ccc21
4.46
CN1CCCC1CCN1C(=O)CCc2cc(NC(=N)c3cccs3)ccc21 (racemic)
< 4.00
N=C(Nc1ccc2c(c1)CCCN2C1CCNCC1)c1cccs1
< 4.00
N=C(Nc1ccc2c(c1)CCC(=O)N2CCN1CCCC1)c1cccs1
4.96

GET /value?item= CCN(CC)CCN1CCCc2cc(NC(=N)c3cccs3)ccc21 &field=pIC50 returns < 4.00

GET /value?item= N=C(Nc1ccc2c(c1)CCC(=O)N2CCN1CCCCC1)c1cccs1 &field=pIC50 returns < 4.00

GET /value?item= N=C(Nc1ccc2c(c1)CCC(=O)N2CCCN1CCCC1)c1cccs1 &field=pIC50 returns < 4.00
